# experimental.target: Phenylethanolamine N-methyltransferase (Bos taurus, UniProt P10938)
# procedure.summary: The compound was measured for the 50% inhibition of phenylethanolamine N-methyl-transferase; 50% inhibition was not achieved at 10e-3 M
experimental.endpoint: IC50

NCC(O)C12CCC(CC1)C2 (configuration not stated)    > 1000 µM

Note: attention shifts to another entry.
Prompt line: Which measured IC50 value corresponds to NCC(O)C12C=CC(CC1)C2 (configuration not stated) ?
Response line: > 1000 µM

----------
# experimental.target: UniProtKB P10938
# Sequence (P10938 whole entry): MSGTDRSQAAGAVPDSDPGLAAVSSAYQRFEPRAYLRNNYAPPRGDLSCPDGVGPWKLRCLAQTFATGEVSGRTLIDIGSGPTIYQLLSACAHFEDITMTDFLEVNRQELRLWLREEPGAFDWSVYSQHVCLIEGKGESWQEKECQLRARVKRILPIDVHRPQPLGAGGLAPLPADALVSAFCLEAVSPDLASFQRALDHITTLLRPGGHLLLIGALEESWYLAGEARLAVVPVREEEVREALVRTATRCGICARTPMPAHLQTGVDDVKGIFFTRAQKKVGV
# procedure.summary: The compound was measured for the 50% inhibition of phenylethanolamine N-methyl-transferase
experimental.endpoint: IC50
The answer consists of two parts: a number and, after it, its unit.

Some solved cases for reference:
NCC(O)C1CCCCCCC1 (stereo unspecified)    8 µM
NCC(O)C1CC2C=CC1C2 (stereo in doubt; 10)    1100 µM
NCC(O)C1CC2C=CC1C2 (stereo in doubt; 9)    454 µM

Prompt line: Look up IC50: NCC(O)C12CC3C[C@H](C1)C[C@H](C3)C2 (stereo partly specified)
Response line: 195 µM

Prompt line: Now this one: NCC(O)C1CC2CCC1C2 (stereo in doubt; 12)
Response line: 193 µM

Prompt line: Follow-up item: NCC(O)C1CC2CCC1C2 (stereo in doubt; 13)
Response line: 475 µM
